system: OCT2 (human, expressed in the cells; OCT2-dependent cytotoxicity); assay: in vitro; details: human
readout: IC50 at 7 h (nM)
Answers are plain numbers, in nM.

Query block: Answer with the recorded IC50 at 7 h for the molecule listed here: [NH2][Pt]([Cl])([Cl])[N]1CCN(c2ccc(F)cc2)CC1
Result block: 208

----------
tested on: SW620 colon cancer cell line; experiment: Cytotoxicity in colon cancer cell line SW620 with and without cimetidine; format: cell-based; settings: SW620, cimetidine 3 mM; read-out: IC50 (in presence of cimetidine)
readout: IC50 (µM)
One number for each entry, in µM.

- O=C1[O][Pt]2([NH][C@@H]3CCCC[C@H]3[NH]2)[O]C1=O [Oxaliplatin, reference compound]: 40

Okay, next one:
Query block: Give reported IC50 for [NH3+][Pt-2]([Cl])([Cl])[NH+]1CCN(c2ccccc2)CC1 [SM73] (SW620 colon cancer cell line)
Result block: 147
